# Tested on: SF-268 CNS
# experiment-summary: NCI tumour cell line growth inhibition, 48 h; in the data active = GI50 below about 0.43 µM; inactive = the rest
Assign a class; possible classes are TRUE (active), FALSE (inactive)

Solved entries (count: 3):
- compound: "CC(=O)OCC1OC([S-])C(OC(C)=O)C(OC(C)=O)C1OC(C)=O.CC[PH+](CC)CC.CC[PH+](CC)CC.[Au].[Au] (centres undefined)"
  assigned-class: "TRUE"
- compound: "COC(=O)[C@@H](NC(=O)[C@@H](OC)[C@@H]1Cc2cc3cc(OC4CC(OC5CC(O)C(O)C(C)O5)C(O)C(C)O4)c(C)c(O)c3c(O)c2C(=O)[C@H]1OC1CC(OC2CC(OC3CC(C)(O)C(O)C(C)O3)C(O)C(C)O2)C(O)C(C)O1)C(C)C (some centres undefined)"
  assigned-class: "TRUE"
- compound: "CCN1C(=O)N(CC)C2C1NC(=S)N2/N=C/C=C/c1cccs1 (centres undefined)"
  assigned-class: "FALSE"

Kindly review the next compound as well.
Query: recorded result category for O=C(CN(C1CCCCC1)C1CCCCC1)Nc1ccc(S(=O)(=O)c2ccc(NC(=O)CN(C3CCCCC3)C3CCCCC3)cc2)cc1 in this test
TRUE
